Values from paper PMC4742234

- PROTOCOL_SUMMARY: Kinetic analysis of CK metabolism in human liver microsomes
- Assay type: in vitro ADME
- MEASUREMENT_CONDITIONS: human, human liver microsomes, pH 7.4, HLMs 0.5 mg/mL, CK 10–100 μM, 37°C, NADPH
PROPERTY: Km at 30 min
The answer should read as a number with its unit following.

Incoming: Give Km at 30 min for the following compound: CC(C)=CCC[C@](C)(OC1O[C@H](CO)[C@@H](O)[C@H](O)[C@H]1O)[C@H]1CC[C@]2(C)[C@@H]1[C@H](O)C[C@@H]1[C@@]3(C)CC[C@H](O)C(C)(C)[C@@H]3CC[C@]12C (stereo partly shown)
Outgoing: 84.2 µM

---

- STUDY_TARGET: CYP2C9 (Homo sapiens)
- Sequence (P11712 whole entry): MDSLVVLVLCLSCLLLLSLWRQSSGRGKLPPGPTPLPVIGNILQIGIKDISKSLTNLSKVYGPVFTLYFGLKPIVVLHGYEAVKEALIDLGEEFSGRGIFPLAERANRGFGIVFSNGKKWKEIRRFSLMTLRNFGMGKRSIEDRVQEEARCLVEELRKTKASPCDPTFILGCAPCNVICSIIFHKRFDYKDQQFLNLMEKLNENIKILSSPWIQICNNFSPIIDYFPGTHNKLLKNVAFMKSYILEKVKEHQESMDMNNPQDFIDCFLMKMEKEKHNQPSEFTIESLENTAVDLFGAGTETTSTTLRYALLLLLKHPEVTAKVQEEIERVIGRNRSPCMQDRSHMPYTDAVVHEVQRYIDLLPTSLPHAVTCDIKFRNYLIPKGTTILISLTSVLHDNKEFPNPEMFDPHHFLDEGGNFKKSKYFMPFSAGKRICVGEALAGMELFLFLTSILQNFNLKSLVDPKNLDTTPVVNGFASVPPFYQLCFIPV
PROPERTY: pIC50
Quick note: pIC50 means taking -log10 of the concentration in moles per liter.

Incoming: Write down measured pIC50 (CYP2C9 (Homo sapiens)) for this molecule. CC(C)=CCC[C@](C)(OC1O[C@H](CO)[C@@H](O)[C@H](O)[C@H]1O)[C@H]1CC[C@]2(C)[C@@H]1[C@H](O)C[C@@H]1[C@@]3(C)CC[C@H](O)C(C)(C)[C@@H]3CC[C@]12C (stereo partly shown) [CK]
Outgoing: 4.80

---

- STUDY_TARGET: CYP2C19 (Homo sapiens, UniProt P33261)
- Sequence (P33261 whole entry): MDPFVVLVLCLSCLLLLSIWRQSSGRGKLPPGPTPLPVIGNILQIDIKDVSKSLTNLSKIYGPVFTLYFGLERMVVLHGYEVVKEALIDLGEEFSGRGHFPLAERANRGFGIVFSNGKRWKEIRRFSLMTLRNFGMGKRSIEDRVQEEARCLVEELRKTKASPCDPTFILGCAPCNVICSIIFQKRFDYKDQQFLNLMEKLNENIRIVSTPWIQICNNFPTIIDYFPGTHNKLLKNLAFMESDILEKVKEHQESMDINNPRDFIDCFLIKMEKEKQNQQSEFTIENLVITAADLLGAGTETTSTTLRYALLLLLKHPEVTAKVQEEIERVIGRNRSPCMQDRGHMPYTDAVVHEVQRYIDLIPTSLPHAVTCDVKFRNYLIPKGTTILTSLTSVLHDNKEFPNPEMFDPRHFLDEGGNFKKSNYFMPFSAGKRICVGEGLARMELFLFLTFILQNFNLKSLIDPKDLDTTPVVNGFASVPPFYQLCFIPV
pIC50: −log10 of the molar value.
PROPERTY: pIC50

Incoming: Please give measured pIC50 of the following entry: CC(C)=CCC[C@](C)(OC1O[C@H](CO)[C@@H](O)[C@H](O)[C@H]1O)[C@H]1CC[C@]2(C)[C@@H]1[C@H](O)C[C@@H]1[C@@]3(C)CC[C@H](O)C(C)(C)[C@@H]3CC[C@]12C (stereo partly shown)
Outgoing: < 4.00

---

- STUDY_TARGET: CYP2D6 (Homo sapiens, UniProt P10635)
- Sequence (P10635 whole entry): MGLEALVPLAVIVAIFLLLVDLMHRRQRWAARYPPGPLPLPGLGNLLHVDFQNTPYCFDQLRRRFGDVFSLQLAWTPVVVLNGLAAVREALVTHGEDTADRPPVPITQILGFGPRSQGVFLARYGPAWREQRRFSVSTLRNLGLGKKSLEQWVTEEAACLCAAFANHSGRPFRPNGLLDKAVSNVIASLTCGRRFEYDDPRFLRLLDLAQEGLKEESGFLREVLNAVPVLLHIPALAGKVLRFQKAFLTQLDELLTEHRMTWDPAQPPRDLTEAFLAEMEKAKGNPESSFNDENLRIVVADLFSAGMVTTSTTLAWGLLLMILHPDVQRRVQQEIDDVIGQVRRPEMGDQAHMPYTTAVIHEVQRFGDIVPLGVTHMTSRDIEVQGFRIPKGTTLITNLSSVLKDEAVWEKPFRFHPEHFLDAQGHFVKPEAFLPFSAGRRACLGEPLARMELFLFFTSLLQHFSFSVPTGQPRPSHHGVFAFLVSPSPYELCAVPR
pIC50: −log10 of the molar value.
PROPERTY: pIC50

Incoming: Identify measured pIC50 obtained with CYP2D6 (Homo sapiens, UniProt P10635) for CC(C)=CCC[C@](C)(OC1O[C@H](CO)[C@@H](O)[C@H](O)[C@H]1O)[C@H]1CC[C@]2(C)[C@@H]1[C@H](O)C[C@@H]1[C@@]3(C)CC[C@H](O)C(C)(C)[C@@H]3CC[C@]12C (stereo partly shown) .
Outgoing: < 4.00

---

- STUDY_TARGET: CYP1A2 (Homo sapiens, UniProt P05177)
- Sequence (P05177 whole entry): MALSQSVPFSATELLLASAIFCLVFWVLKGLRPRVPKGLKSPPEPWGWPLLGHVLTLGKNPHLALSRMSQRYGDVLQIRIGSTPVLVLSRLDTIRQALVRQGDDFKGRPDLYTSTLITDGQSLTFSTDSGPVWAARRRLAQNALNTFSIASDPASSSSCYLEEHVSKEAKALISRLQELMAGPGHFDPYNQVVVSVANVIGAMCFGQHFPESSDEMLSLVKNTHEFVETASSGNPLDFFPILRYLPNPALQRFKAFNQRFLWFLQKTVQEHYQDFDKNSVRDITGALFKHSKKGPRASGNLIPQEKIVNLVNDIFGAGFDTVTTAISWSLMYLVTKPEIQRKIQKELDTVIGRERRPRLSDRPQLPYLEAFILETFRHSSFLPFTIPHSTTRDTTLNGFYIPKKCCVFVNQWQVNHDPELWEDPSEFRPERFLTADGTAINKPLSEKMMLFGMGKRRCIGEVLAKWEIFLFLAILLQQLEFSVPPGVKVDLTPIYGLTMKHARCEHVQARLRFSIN
PROPERTY: IC50

Incoming: Using the record for CC(C)=CCC[C@](C)(OC1O[C@H](CO)[C@@H](O)[C@H](O)[C@H]1O)[C@H]1CC[C@]2(C)[C@@H]1[C@H](O)C[C@@H]1[C@@]3(C)CC[C@H](O)C(C)(C)[C@@H]3CC[C@]12C (stereo partly shown) , state its measured IC50.
Outgoing: > 100 µM

---

- STUDY_TARGET: CYP3A4 (Homo sapiens, UniProt P08684)
- Sequence (P08684 whole entry): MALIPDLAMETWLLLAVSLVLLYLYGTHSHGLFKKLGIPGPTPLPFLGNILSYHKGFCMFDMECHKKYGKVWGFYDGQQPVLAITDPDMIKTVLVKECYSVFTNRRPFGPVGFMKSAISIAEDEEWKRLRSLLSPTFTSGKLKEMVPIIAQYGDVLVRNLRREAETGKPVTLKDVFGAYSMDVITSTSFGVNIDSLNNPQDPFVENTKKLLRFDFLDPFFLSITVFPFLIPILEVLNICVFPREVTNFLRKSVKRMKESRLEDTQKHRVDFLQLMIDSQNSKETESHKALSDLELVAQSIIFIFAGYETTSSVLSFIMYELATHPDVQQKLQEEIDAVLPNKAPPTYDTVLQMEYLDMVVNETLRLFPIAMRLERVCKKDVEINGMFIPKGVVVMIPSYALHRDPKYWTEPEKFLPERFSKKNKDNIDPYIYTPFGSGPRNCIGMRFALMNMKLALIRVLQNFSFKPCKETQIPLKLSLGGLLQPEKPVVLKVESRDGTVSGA
PROPERTY: pKi
Keep in mind that pKi stands for -log10 of concentration in molar terms.

Incoming: Using known records, supply pKi for CC(C)=CCC[C@](C)(OC1O[C@H](CO)[C@@H](O)[C@H](O)[C@H]1O)[C@H]1CC[C@]2(C)[C@@H]1[C@H](O)C[C@@H]1[C@@]3(C)CC[C@H](O)C(C)(C)[C@@H]3CC[C@]12C (stereo partly shown)
Outgoing: 4.94
